test system: MDA-MB-436; test: drug sensitivity score (DSS), CellTiter-Blue viability (DSS (AUC-based score)); higher = stronger viability inhibition; extreme values may be limits of the assay; details: incubation time: 72 h
Quantity Measured: drug sensitivity score

Answered examples (7):
smiles_representation=Cc1ccc(Nc2nccc(N(C)c3ccc4c(C)n(C)nc4c3)n2)cc1S(N)(=O)=O result=4.09
smiles_representation=CCN(CC)CCNC(=O)c1c(C)[nH]c(/C=C2\C(=O)Nc3ccc(F)cc32)c1C result=0
smiles_representation=c1cc(CN2CCCNCCNCCCNCC2)ccc1CN1CCCNCCNCCCNCC1 result=0
smiles_representation=O=C(NC[C@H](O)CO)c1ccncc1Nc1ccc(I)cc1F result=0
smiles_representation=COc1nc(N)nc2c1ncn2[C@@H]1O[C@H](CO)[C@@H](O)[C@@H]1O result=0
smiles_representation=CC[C@@]1(O)C(=O)OCc2c1cc1n(c2=O)Cc2cc3c(CN(C)C)c(O)ccc3nc2-1 result=6.23
smiles_representation=Cn1cc(CNCC2CCN(c3ncc(C(=O)NO)cn3)CC2)c2ccccc21 result=5.46

Now look at this entry.
Inquiry: // returns reported drug sensitivity score for input O=C1c2c(O)ccc(O)c2C(=O)c2c(NCCNCCO)ccc(NCCNCCO)c21
Reply text: 3.16

====

system: HDQ-P1; test: normalised response (% of control), CellTiter-Glo; higher = more viable cells (100 = DMSO, 0 = benzethonium chloride kill control); details: incubation time: 72 h
Quantity Measured: normalised response
Your answer should be a number followed by the unit of measure.

compound="CC(=O)OC[C@H]1O[C@@H]([S-])[C@H](OC(C)=O)[C@@H](OC(C)=O)[C@@H]1OC(C)=O.CCP(CC)CC.[Au+] [Auranofin] (2500 nM)" result=11.1%
compound="CNC(=O)c1cc(Oc2ccc(NC(=O)Nc3ccc(Cl)c(C(F)(F)F)c3)cc2)ccn1 [Sorafenib] (1000 nM)" result=99.3%
compound="CC/C(=C(\\c1ccc(O)cc1)c1ccc(OCCN(C)C)cc1)c1ccccc1 [4-hydroxytamoxifen] (10000 nM)" result=73.1%

I would be grateful if you could provide normalised response for each of the following entries.
1. Cc1ccc(Nc2nccc(N(C)c3ccc4c(C)n(C)nc4c3)n2)cc1S(N)(=O)=O [Pazopanib] (10000 nM)
2. CO[C@@H](C(=O)N1Cc2[nH]nc(NC(=O)c3ccc(N4CCN(C)CC4)cc3)c2C1)c1ccccc1 [Danusertib] (10000 nM)
3. Cc1c(Cn2c(C)nc3c(C(=O)O)cc(N4CCOCC4)cc32)cccc1C(F)(F)F (10000 nM)
4. CS(=O)(=O)N1CCN(Cc2cc3nc(-c4cccc5[nH]ncc45)nc(N4CCOCC4)c3s2)CC1 [Pictilisib] (10000 nM)
5. CCC/C=C/C=C/C(=O)O[C@H]1/C(=C/C(=O)OC)C[C@H]2C[C@H]([C@@H](C)O)OC(=O)C[C@H](O)C[C@@H]3C[C@H](OC(C)=O)C(C)(C)[C@](O)(C[C@@H]4C/C(=C/C(=O)OC)C[C@H](/C=C/C(C)(C)[C@]1(O)O2)O4)O3 [Bryostatin 1] (100 nM)
6. c1cc(CN2CCCNCCNCCCNCC2)ccc1CN1CCCNCCNCCCNCC1 [Plerixafor] (10000 nM)

Reply text:
["98.1%", "44.2%", "100%", "19.9%", "81.5%", "98.2%"]

Inquiry: // returns reported normalised response for input O=S(=O)(c1cccc2cnccc12)N1CCCNCC1 [Fasudil] (50000 nM)
Reply text: 89%
